Target Or Test System: FLT3wt (Homo sapiens (Human), UniProt P36888)
Sequence (P36888 27-993): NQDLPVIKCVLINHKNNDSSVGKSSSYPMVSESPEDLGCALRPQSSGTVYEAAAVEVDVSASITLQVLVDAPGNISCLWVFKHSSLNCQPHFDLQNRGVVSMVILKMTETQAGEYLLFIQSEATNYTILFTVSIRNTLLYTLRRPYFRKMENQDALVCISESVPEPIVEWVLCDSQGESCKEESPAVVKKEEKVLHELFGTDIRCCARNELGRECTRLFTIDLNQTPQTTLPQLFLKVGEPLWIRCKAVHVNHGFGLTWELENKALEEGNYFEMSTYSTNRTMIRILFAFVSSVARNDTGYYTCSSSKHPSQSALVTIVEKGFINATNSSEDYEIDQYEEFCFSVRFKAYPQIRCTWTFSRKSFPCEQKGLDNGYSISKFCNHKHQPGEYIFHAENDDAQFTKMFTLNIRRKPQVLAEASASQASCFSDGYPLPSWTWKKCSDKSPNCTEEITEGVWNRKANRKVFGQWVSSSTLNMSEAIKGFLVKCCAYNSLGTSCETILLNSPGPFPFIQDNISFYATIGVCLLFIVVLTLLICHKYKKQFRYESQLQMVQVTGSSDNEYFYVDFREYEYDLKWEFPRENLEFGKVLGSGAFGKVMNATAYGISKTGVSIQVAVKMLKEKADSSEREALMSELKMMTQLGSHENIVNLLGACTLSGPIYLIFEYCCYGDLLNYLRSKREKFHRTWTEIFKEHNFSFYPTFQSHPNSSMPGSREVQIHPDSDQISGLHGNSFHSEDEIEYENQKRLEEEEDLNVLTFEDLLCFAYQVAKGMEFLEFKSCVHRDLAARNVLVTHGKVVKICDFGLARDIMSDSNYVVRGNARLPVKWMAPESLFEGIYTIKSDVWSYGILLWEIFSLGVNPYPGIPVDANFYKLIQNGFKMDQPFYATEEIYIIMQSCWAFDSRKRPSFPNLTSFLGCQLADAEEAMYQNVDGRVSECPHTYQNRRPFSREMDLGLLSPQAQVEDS
Protocol Description: ADP-Glo Kinase Assay, Flt3 wt
Type: biochemical
Applied Conditions: 1 μM compound; read-out: Flt3wt % INH (1 μM)
Structures can show the parent of a compound that is named as a salt.
Use 20% as the dividing line for inhibition at 1 µM, with the line itself on the Y side and lower values as N.

Query: Given the entry CC(C)n1c(N2CCN[C@@H](C)C2)nc2c([N+](=O)[O-])c(Br)c(Br)cc21 [Example 22Z] , answer whether its inhibition at 1 µM meets or surpasses 20%.
Reply: Y

Query: Can you handle NCCCn1c(N2CC[C@@H](N)C2)nc2c([N+](=O)[O-])c(Br)c(Br)cc21 next?
Reply: N

Query: Can you handle CC(C)n1c(N2CCC[C@H](N)C2)nc2c(C#N)c(Br)c(Br)cc21 next?
Reply: Y

Query: Can you handle CCn1c(NC2CCCNCC2)nc2c([N+](=O)[O-])c(Br)c(Br)cc21 (stereo not shown) next?
Reply: N

Query: Can you handle CC(C)n1c(N2CCCC(N)C2)nc2c([N+](=O)[O-])c(Br)c(Br)cc21 (stereo not shown) next?
Reply: Y

Query: Can you handle COC(CN)CNc1nc2c(C#N)c(Br)c(Br)cc2n1C(C)C (stereo not shown) [Example 22AC] next?
Reply: N

Query: Can you handle CCn1c(NCC(O)CN)nc2c([N+](=O)[O-])c(Br)c(Br)cc21 (stereo not shown) next?
Reply: N

Query: Can you handle CC(C)=CCn1c(N2CCNCC2)nc2c([N+](=O)[O-])c(Br)c(Br)cc21 [Example 2E, hydrochloride] next?
Reply: Y

Query: Can you handle CC(C)n1c(NC2CCC(N)CC2)nc2c(C#N)c(Br)c(Br)cc21 (stereo not shown) next?
Reply: N

Query: Can you handle CCn1c(NC2CCCCC2N)nc2c([N+](=O)[O-])c(Br)c(Br)cc21 (stereo not shown) [Example 22L] next?
Reply: N
